This section presents pIC50 values reported for UniProt:Q92769 in the literature.
A value of pIC50 is the negative decimal logarithm of a concentration given in moles per litre.

>>> df
                              record_smiles  reported
0  C/C=C1\NC(=O)c2cccc(n2)CNC(=O)C[C@@H](/C=C/CCSC(=O)CCCCCCC)OC(=O)[C@H](CC)NC1=O      7.19
1  C/C=C1\NC(=O)c2cccc(n2)CNC(=O)C[C@@H](/C=C/CCSC(=O)CCCC)OC(=O)[C@H](C(C)C)NC1=O      6.60
2  O=C(NO)c1cnc(NC2(c3ccccc3)CCN(C(=O)Nc3ccc(F)cc3)CC2)nc1      7.37
3      COc1ccc(N(CCCCCCC(=O)NO)c2ccccn2)nc1      6.05
4  C/C=C1\NC(=O)c2nc(ccc2F)CNC(=O)C[C@@H](/C=C/CCSC(C)=O)OC(=O)[C@H](C)NC1=O      7.24

Input line: Please give the measured pIC50 for this compound: C/C=C1\NC(=O)c2cc(F)cc(n2)CNC(=O)C[C@@H](/C=C/CCSC(=O)CCCCCCC)OC(=O)[C@H](CC)NC1=O
Output line: 7.47

Input line: Please give the measured pIC50 for this compound: CN(Cc1ccc(/C=C/C(=O)NO)cc1F)CC1CCCCC1
Output line: 7.40

Input line: Please give the measured pIC50 for this compound: C=C1NC(=O)c2cccc(n2)CNC(=O)C[C@@H](/C=C/CCSC(C)=O)OC(=O)[C@H](C(C)C)NC1=O
Output line: 7.20

###

This section presents pIC50 values reported for Histone deacetylase 2 (Homo sapiens) in the literature.
A value of pIC50 is the negative decimal logarithm of a concentration given in moles per litre.

Consider the reported pIC50 for these compounds:
                              record_smiles  reported
0  CCCCCCCC(=O)SCC/C=C/[C@@H]1CC(=O)NCc2cccc(n2)C(=O)NCC(=O)N[C@@H](C(C)C)C(=O)O1      7.16
1                  COc1ccc(/C=C/C(=O)NO)cc1      6.08

Input line: Missing value: pIC50, Histone deacetylase 2 (Homo sapiens), entry O=C(CCCCCCN(c1ccccn1)c1cc2ccccc2cn1)NO . Fill in?
Output line: 6.51

###

This section presents IC50 values reported for Histone deacetylase 2 (Homo sapiens) in the literature.

Input line: Missing value: IC50, Histone deacetylase 2 (Homo sapiens), entry C/C=C1\NC(=O)c2nccc(n2)CNC(=O)C[C@@H](/C=C/CCSC(C)=O)OC(=O)[C@H](C)NC1=O . Fill in?
Output line: 83 nM

Input line: Missing value: IC50, Histone deacetylase 2 (Homo sapiens), entry Nc1ccccc1NC(=O)c1ccc(CN2C(=O)Nc3ccccc3S2(=O)=O)s1 . Fill in?
Output line: 50 to 100 nM

Input line: Missing value: IC50, Histone deacetylase 2 (Homo sapiens), entry NC1=NS(=O)(=O)c2ccccc2N1Cc1ccc(C(=O)Nc2ccccc2N)cc1 . Fill in?
Output line: 100 to 500 nM

Input line: Missing value: IC50, Histone deacetylase 2 (Homo sapiens), entry Nc1ccc(-c2cccs2)cc1NC(=O)c1ccc(OCCO)cn1 . Fill in?
Output line: 10 to 20 nM

###

This section presents IC50 values reported for UniProt Q92769 in the literature.

Consider the reported IC50 for these compounds:
>>> print(df.to_string())
                              record_smiles      reported
0  Cn1cc(Cn2ncc3cc(C(=O)Nc4ccccc4N)ccc32)cn1     < 1000 nM
1  CN(C)S(=O)(=O)c1cccc(-c2nnn(Cc3ccc(C(=O)NO)cc3)n2)c1       2320 nM
2  Nc1ccc(-c2ccc(F)cc2)cc1NC(=O)c1ccc2nc(N3CCNCC3)ccc2c1  10 to 500 nM
3  O=C(NO)c1cnc(NC2(c3ccccc3)CCN(C(=O)Cc3c[nH]c4ccccc34)CC2)nc1          2 nM
4  O=C(NO)c1ccc(Cn2nnc(-c3ccc(C(F)(F)F)cc3)n2)cc1       2030 nM
5  CN1CCN(CCNc2ccc(C(=O)Nc3nc(-c4ccc(F)cc4)ccc3N)cn2)CC1      < 200 nM

Input line: Please give the measured IC50 for this compound: Nc1ccc(-c2ccco2)cc1NC(=O)c1nc(N2CCNCC2)cs1
Output line: 10 to 500 nM

Input line: Please give the measured IC50 for this compound: CN1CCN(c2ncc(C(=O)Nc3nc(-c4ccc(F)cc4)ccc3N)cn2)CC1
Output line: < 200 nM

###

This section presents IC50 values reported for Histone deacetylase 2 (Homo sapiens) in the literature.

>>> print(df.to_string())
                              record_smiles  property_name       reported
0  O=C(NO)c1cnc(NC2(c3ccccc3)CCN(C(=O)Nc3c(F)cccc3F)CC2)nc1           IC50          22 nM
1  Nc1ccc(-c2cccs2)cc1NC(=O)c1ccc2nc(N3CCNCC3)ccc2c1           IC50          15 nM
2  COCCN(C)c1ccc2cc(C(=O)Nc3cc(-c4cccs4)ccc3N)cnc2c1           IC50  155 to 160 nM

Now for another entry.
Input line: Missing value: IC50, Histone deacetylase 2 (Homo sapiens), entry Nc1ccccc1NC(=O)c1ccc(COc2nc3cccnc3[nH]2)cc1 . Fill in?
Output line: 100 to 1000 nM

###

This section presents IC50 values reported for UniProt:Q92769 in the literature.

Consider the reported IC50 for these compounds:
>>> print(df.to_string())
                              record_smiles   target_entity    reported
0  CN(C)Cc1cccc(OCCn2ccc3ccc(C(=O)NO)cc32)c1  UniProt:Q92769  > 10000 nM
1  C/C=C1\NC(=O)c2cccc(n2)CCNC(=O)C[C@@H](/C=C/CCSC(C)=O)OC(=O)[C@H](C(C)C)NC1=O  UniProt:Q92769       64 nM

Input line: Missing value: IC50, UniProt:Q92769, entry C/C=C1\NC(=O)c2cccc(n2)CNC(=O)C[C@@H](/C=C/CCSC(=O)CCCCCC)OC(=O)[C@H](C(C)C)NC1=O . Fill in?
Output line: 163 nM

Input line: Missing value: IC50, UniProt:Q92769, entry Nc1ccccc1NC(=O)c1ccc(CSc2nc3ccccc3[nH]2)cc1 . Fill in?
Output line: 100 to 1000 nM

Input line: Missing value: IC50, UniProt:Q92769, entry C=C1NC(=O)c2cc(SC)cc(n2)CNC(=O)C[C@@H](/C=C/CCSC(C)=O)OC(=O)[C@H](C(C)C)NC1=O . Fill in?
Output line: 52 nM

Input line: Missing value: IC50, UniProt:Q92769, entry Cn1cnc2ccc(C(=O)Nc3cc(-c4cccs4)ccc3N)cc21 . Fill in?
Output line: 210 to 220 nM

Input line: Missing value: IC50, UniProt:Q92769, entry C/C=C1\NC(=O)c2nc(ccc2F)CNC(=O)C[C@@H](/C=C/CCSC(C)=O)OC(=O)[C@H](CCCCN)NC1=O . Fill in?
Output line: 331 nM

Input line: Missing value: IC50, UniProt:Q92769, entry Nc1ccccc1NC(=O)c1ccc2c(cnn2Cc2ccccc2)c1 . Fill in?
Output line: < 1000 nM

###

This section presents IC50 values reported for Histone deacetylase 2 (Homo sapiens, UniProt Q92769) in the literature.
Number in nM, nothing else.

Consider the reported IC50 for these compounds:
>>> print(df.to_string())
                              record_smiles  reported
0  C/C=C1\NC(=O)c2cc(F)cc(n2)CNC(=O)C[C@@H](/C=C/CCSC(C)=O)OC(=O)[C@H](CC)NC1=O        21
1  Cn1cnc2c(NC3CCCCC3)nc(Nc3ccc(OCCCCCCC(=O)NO)cc3)nc21       124
2  C/C=C1\NC(=O)c2cccc(n2)CNC(=O)C[C@@H](/C=C/CCSC(=O)CCCCC)OC(=O)[C@H](C(C)C)NC1=O       158

Now for another entry.
Input line: Missing value: IC50, Histone deacetylase 2 (Homo sapiens, UniProt Q92769), entry Cc1cc(-c2nnc(Sc3ccc(C(=O)NO)cc3)n2C)nn1C . Fill in?
Output line: 1700

###

This section presents IC50 values reported for UniProt Q92769 in the literature.

Consider the reported IC50 for these compounds:
>>> print(df.to_string())
                              record_smiles       reported
0  Nc1ccc(-c2cccnc2)cc1NC(=O)c1ccc(N2CCNCC2)nc1   10 to 500 nM
1  C/C=C1\NC(=O)c2nc(ccc2C)CNC(=O)C[C@@H](/C=C/CCSC(C)=O)OC(=O)[C@H](Cc2ccccc2)NC1=O          16 nM
2  Nc1ccc(-c2cn(Cc3ccc(-c4nnc(C(F)F)o4)cn3)nn2)cn1     > 30000 nM
3  Nc1ccccc1NC(=O)c1ccc(Cn2c(=O)ncc3ccccc32)cc1  100 to 500 nM
4  CN1CCN(c2ncc(C(=O)Nc3cc(-c4ccccc4)ccc3N)s2)CC1   10 to 500 nM

Now for another entry.
Input line: Please give the measured IC50 for this compound: COc1ccc2c(c1)NC(=S)N(Cc1ccc(C(=O)Nc3ccccc3N)cc1)S2(=O)=O
Output line: < 50 nM
